The reported numbers originate from BindingDB's records for doi:10.1016/j.ejmech.2017.02.004.

- procedure-text: Substrate activity at CPR in human L02 cells assessed as CPR-mediated one-electron reduction of compound by measuring cell growth inhibition treated for 24 hrs measured after 72 hrs by MTT assay
Catalogue of compounds with associated IC50
Just the number please, in µM, no unit attached.

# example entries with known answers
compound	assay-value
Cc1ccc2c(c1)-c1occ(C)c1C(=O)C2=O	6.3
Cc1coc2c1C(=O)C(=O)c1c(C)ccc(C)c1-2	17
CCc1coc2c1C(=O)C(=O)c1cc(C)ccc1-2	25
COc1ccc2c(c1)C(=O)C(=O)C1=C2OC(C)C1(C)C (stereo unspecified)	30
COc1cccc2c1C1=C(C(=O)C2=O)C(C)(C)C(C)O1 (stereo unspecified)	19

Field: next compound
Prompt: Name the reported IC50 value associated with the compound Cc1ccc2c(c1)C(=O)C(=O)c1c(C)coc1-2
Response: 22

====

Catalogue of compounds with associated pIC50
- procedure-text: Substrate activity at NQO1 in human A549 cells assessed as NQO1-mediated two-electron reduction of compound by measuring cell growth inhibition treated for 24 hrs measured after 72 hrs by MTT assay
Reminder that pIC50 means the negative base-10 logarithm of the concentration expressed in mol/L.

compound	pIC50
COc1ccc2c(c1)C1=C(C(=O)C2=O)C(C)(C)C(C)O1 (configuration not stated)	5.24
Cc1ccc2c(c1)-c1occ(C)c1C(=O)C2=O	5.39
Cc1ccc2c(c1)C(=O)C(=O)c1c(C)coc1-2	5.07
CCc1coc2c1C(=O)C(=O)c1cc(C)ccc1-2	5.51

Prompt: Name the reported pIC50 value associated with the compound Cc1cc2c(cc1C)-c1occc1C(=O)C2=O
Response: 5.51

Prompt: Name the reported pIC50 value associated with the compound Cc1coc2c1C(=O)C(=O)c1c(C)ccc(C)c1-2
Response: 5.54

Prompt: Name the reported pIC50 value associated with the compound Cc1cc2c(cc1C)-c1occ(C)c1C(=O)C2=O
Response: 5.48

====

- procedure-text: Substrate activity at NQO1 in human H1299 cells assessed as NQO1-mediated two-electron reduction of compound by measuring cell growth inhibition treated for 24 hrs measured after 72 hrs by MTT assay
result-type: pIC50
Reminder that pIC50 means the negative base-10 logarithm of the concentration expressed in mol/L.

Prompt: Name the reported pIC50 value associated with the compound Cc1cc2c(cc1C)-c1occ(C)c1C(=O)C2=O
Response: 5.31

====

- procedure-text: Substrate activity at NQO1 in human H1650 cells assessed as NQO1-mediated two-electron reduction of compound by measuring cell growth inhibition treated for 24 hrs measured after 72 hrs by MTT assay
result-type: IC50 (µM)
Just the number please, in µM, no unit attached.

Prompt: Name the reported IC50 value associated with the compound Cc1cc2c(cc1C)-c1occ(C)c1C(=O)C2=O
Response: 9.3

====

- procedure-text: Substrate activity at NQO1 in human HCT116 cells assessed as NQO1-mediated two-electron reduction of compound by measuring cell growth inhibition treated for 24 hrs measured after 72 hrs by MTT assay
result-type: pIC50
Reminder that pIC50 means the negative base-10 logarithm of the concentration expressed in mol/L.

Prompt: Name the reported pIC50 value associated with the compound Cc1cc2c(cc1C)-c1occ(C)c1C(=O)C2=O
Response: 5.36
